Could you please report measured inhibition for the items listed next?
ASSAYED_SYSTEM: Collagen alpha-1(I) chain (Homo sapiens)
Sequence (P02452 whole entry): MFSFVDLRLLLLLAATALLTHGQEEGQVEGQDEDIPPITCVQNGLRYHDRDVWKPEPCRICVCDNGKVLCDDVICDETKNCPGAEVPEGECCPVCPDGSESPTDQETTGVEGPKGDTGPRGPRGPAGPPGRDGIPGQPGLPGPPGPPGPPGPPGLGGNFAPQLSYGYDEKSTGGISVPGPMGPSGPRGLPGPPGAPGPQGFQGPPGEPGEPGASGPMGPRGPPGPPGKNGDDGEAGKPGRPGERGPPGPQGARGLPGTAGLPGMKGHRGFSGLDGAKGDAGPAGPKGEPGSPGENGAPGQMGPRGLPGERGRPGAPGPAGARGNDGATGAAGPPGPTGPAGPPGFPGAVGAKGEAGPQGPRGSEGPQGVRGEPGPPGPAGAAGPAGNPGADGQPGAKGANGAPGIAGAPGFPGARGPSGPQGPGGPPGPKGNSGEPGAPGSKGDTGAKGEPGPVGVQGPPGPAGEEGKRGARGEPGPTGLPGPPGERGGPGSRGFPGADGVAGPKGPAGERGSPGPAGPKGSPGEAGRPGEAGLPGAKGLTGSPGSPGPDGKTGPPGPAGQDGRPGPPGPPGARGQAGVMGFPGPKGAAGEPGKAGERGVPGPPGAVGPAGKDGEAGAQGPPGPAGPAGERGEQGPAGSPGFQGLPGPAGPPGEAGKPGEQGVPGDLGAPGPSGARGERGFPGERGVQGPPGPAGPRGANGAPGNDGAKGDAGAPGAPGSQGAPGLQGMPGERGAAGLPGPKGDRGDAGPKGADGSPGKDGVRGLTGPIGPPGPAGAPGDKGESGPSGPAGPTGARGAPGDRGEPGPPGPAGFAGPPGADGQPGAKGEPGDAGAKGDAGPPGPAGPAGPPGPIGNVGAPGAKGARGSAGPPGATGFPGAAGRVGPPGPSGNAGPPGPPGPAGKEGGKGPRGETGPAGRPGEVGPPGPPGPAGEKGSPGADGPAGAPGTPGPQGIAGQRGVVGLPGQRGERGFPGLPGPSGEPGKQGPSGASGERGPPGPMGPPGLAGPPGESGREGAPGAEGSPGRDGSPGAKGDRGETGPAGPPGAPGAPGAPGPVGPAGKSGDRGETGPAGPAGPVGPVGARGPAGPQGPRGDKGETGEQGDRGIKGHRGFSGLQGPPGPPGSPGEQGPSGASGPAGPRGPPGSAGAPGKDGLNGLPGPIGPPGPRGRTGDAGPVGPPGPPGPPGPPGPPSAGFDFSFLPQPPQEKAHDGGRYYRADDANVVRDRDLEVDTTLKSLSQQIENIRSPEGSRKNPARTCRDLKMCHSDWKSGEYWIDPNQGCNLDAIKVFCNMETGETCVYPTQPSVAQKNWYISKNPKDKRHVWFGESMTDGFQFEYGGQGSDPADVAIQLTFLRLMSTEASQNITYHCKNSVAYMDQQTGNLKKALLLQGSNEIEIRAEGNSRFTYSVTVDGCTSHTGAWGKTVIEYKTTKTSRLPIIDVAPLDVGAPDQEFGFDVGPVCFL
ASSAY_PROTOCOL: Inhibition of COL1A1 (unknown origin) expressed in human LX2 cells at 40 uM measured for 24 hrs relative to control
Assay type: cell-based
Param answer (str): number followed by unit.

Q: Recorded inhibition of CCCC[C@@H]1[C@H]2CCCN3CCC[C@@H](CN1C(=O)Nc1c(C(C)C)cccc1C(C)C)[C@@H]23 , please.
A: 98%

Q: Recorded inhibition of O=C(Nc1cccc(Cl)c1)N1C[C@@H]2CCCN3CCC[C@@H]([C@H]23)[C@H]1CCCCO , please.
A: 24.8%

Q: Recorded inhibition of CCCC[C@@H]1[C@H]2CCCN3CCC[C@@H](CN1C(=O)Nc1ccc([N+](=O)[O-])cc1)[C@@H]23 , please.
A: 43.4%

Q: Recorded inhibition of CCCCc1ccc(NC(=O)N2C[C@@H]3CCCN4CCC[C@@H]([C@H]34)[C@H]2CCCC)cc1 , please.
A: 99.9%

Q: Recorded inhibition of CCCC[C@@H]1[C@H]2CCCN3CCC[C@@H](CN1C(=O)Nc1ccccc1C(F)(F)F)[C@@H]23 , please.
A: 95.2%

Q: Recorded inhibition of O=C(CN1C[C@@H]2CCCN3CCC[C@@H]([C@H]23)[C@H]1CCCCO)Nc1ccccc1 , please.
A: 8.51%

Q: Recorded inhibition of CCCC[C@@H]1[C@H]2CCCN3CCC[C@@H](CN1C(=O)Nc1ccc(C(C)C)cc1)[C@@H]23 , please.
A: 92%

Q: Recorded inhibition of CCCC[C@@H]1[C@H]2CCCN3CCC[C@@H](CN1C(=O)Nc1ccc(Cl)c(Cl)c1)[C@@H]23 , please.
A: 98.5%

* * *

ASSAYED_SYSTEM: Collagen alpha-1(I) chain (Homo sapiens)
ASSAY_PROTOCOL: Inhibition of COL1A1 (unknown origin) expressed in human LX2 cells at 40 uM measured for 24 hrs relative to control
Type: cell-based
The threshold is inclusive: inhibition of exactly 70% counts as class 1; values below receive class 0.

Q: hey, is inhibition for this one >= 70%? CCCC[C@@H]1[C@H]2CCCN3CCC[C@@H](CN1C(=O)Nc1cc(C)cc(C)c1)[C@@H]23
A: class 1

Q: hey, is inhibition for this one >= 70%? CCCC[C@@H]1[C@H]2CCCN3CCC[C@@H](CN1CC(=O)Nc1cccc(-c4ccccc4)c1)[C@@H]23
A: class 1

Q: hey, is inhibition for this one >= 70%? CCCC[C@@H]1[C@H]2CCCN3CCC[C@@H](CN1CC(=O)Nc1ccncc1C)[C@@H]23
A: class 0

Q: hey, is inhibition for this one >= 70%? O=C(Nc1ccc(C(F)(F)F)cc1)N1C[C@@H]2CCCN3CCC[C@@H]([C@H]23)[C@H]1CCCCO
A: class 0

Q: hey, is inhibition for this one >= 70%? CCCC[C@@H]1[C@H]2CCCN3CCC[C@@H](CN1C(=O)Nc1c(CC)cccc1CC)[C@@H]23
A: class 1

Q: hey, is inhibition for this one >= 70%? CCCC[C@@H]1[C@H]2CCCN3CCC[C@@H](CN1C(=O)Nc1ccc(Br)cc1)[C@@H]23
A: class 1

Q: hey, is inhibition for this one >= 70%? CCCC[C@@H]1[C@H]2CCCN3CCC[C@@H](CN1C(=O)Nc1ccc(C(F)(F)F)cc1)[C@@H]23
A: class 1

Q: hey, is inhibition for this one >= 70%? CCCC[C@@H]1[C@H]2CCCN3CCC[C@@H](CN1CC(=O)Nc1c(C)cccc1C)[C@@H]23
A: class 0

Recorded values, source ChEMBL document CHEMBL5338827.
